# study.system: Retinoid isomerohydrolase (Mus musculus) (UniProt Q91ZQ5)
# Sequence (Q91ZQ5 whole entry): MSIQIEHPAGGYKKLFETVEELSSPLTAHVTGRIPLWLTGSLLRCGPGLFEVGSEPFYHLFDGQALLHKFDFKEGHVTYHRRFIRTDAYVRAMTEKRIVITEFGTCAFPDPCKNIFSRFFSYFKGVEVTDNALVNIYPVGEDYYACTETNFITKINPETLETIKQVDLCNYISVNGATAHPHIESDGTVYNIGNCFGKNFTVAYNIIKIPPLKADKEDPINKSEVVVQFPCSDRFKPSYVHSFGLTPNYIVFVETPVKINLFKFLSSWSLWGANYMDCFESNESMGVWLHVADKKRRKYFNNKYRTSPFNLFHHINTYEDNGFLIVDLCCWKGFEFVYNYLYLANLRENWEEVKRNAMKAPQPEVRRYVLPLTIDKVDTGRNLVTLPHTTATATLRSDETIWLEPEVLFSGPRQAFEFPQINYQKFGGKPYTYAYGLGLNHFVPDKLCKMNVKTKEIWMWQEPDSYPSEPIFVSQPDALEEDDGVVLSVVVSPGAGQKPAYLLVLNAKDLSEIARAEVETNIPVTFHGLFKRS
# assay.overview: In vivo inhibition of RPE65 in BALB/cJ mouse eye by measuring 11-cis-retinal level per eye at 10 mg/kg,ip administrated and measured after 4 hrs of dark adaptation by HPLC analysis
# Type: functional, organism-based
measured.property: Activity (pmol)
Answer with a number only, understood to be in pmol.

Examples with their reported Activity follow.
Tell me measured Activity for CC(CN)Cc1cccc(OCC2CCCCC2)c1 (stereo not given) please.
323

Tell me measured Activity for CC(CCN)c1cccc(OCC2CCCCC2)c1 (stereo not given) please.
94.4

Tell me measured Activity for CNCCC(O)c1cccc(OCC2CCCCC2)c1 (stereo not given) please.
22.5

Next:
Tell me measured Activity for `NCCc1cccc(OCC2CCCCC2)c1` please.
393

Tell me measured Activity for CC(CN)Cc1ccc(F)c(OCC2CCCCC2)c1 (stereo not given) please.
413
